# System: 699152-130-R-J1-PDC complex spheroid growth
# experiment description: Anticancer human tumor 699152-130-R-J1-PDC patient-derived pancreatic carcinoma cell line growth inhibition [AhR]
# particulars: second compound 0.316 µM; first compound 0.949 µM; stronger effect = lower value
Please use satisfied for viability, T/C under 90% and not satisfied for everything else, ties included.

// below: answered compounds
# compound, discrete label
measured = [
    ("O=C(C=Cn1cnc(-c2cc(C(F)(F)F)cc(C(F)(F)F)c2)n1)NNc1cnccn1 + Cc1ccccc1N=Nc1ccc(NC(=O)c2ccnn2C)c(C)c1", "satisfied"),
    ("CCN(c1cc(-c2ccc(CN3CCOCC3)cc2)cc(C(=O)NCc2c(C)cc(C)[nH]c2=O)c1C)C1CCOCC1 + Cc1ccccc1N=Nc1ccc(NC(=O)c2ccnn2C)c(C)c1", "not satisfied"),
    ("CCN(c1cc(-c2ccc(CN3CCOCC3)cc2)cc(C(=O)NCc2c(C)cc(C)[nH]c2=O)c1C)C1CCOCC1 + Cc1cncc(-c2nc(NCCc3c[nH]c4ccccc34)c3ncn(C(C)C)c3n2)c1", "not satisfied"),
    ("O=C(C=Cn1cnc(-c2cc(C(F)(F)F)cc(C(F)(F)F)c2)n1)NNc1cnccn1 + Cc1cncc(-c2nc(NCCc3c[nH]c4ccccc34)c3ncn(C(C)C)c3n2)c1", "satisfied"),
]

Turning to the following compound.
Field: below-cutoff. Rule: recorded viability, T/C strictly less than 90%. Subject: CCN(c1cc(-c2ccc(CN3CCOCC3)cc2)cc(C(=O)NCc2c(C)cc(C)[nH]c2=O)c1C)C1CCOCC1 + CC(CO)NC(=O)c1cc(-c2ccc(Cl)cc2)nn(-c2cnn(C)c2)c1=O
not satisfied

====

Listed here are molecules together with their documented viability, T/C.
# Test system: 699152-130-R-J1-PDC complex spheroid growth
# experiment description: Anticancer human tumor 699152-130-R-J1-PDC cell line growth inhibition [AhR];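 further: compound exposure lasted 7 days after spheroids had grown for 3 days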
# particulars: second compound 1 µM; first compound 0.0316 µM; stronger effect = lower value
# From the text: Multicellular complex tumor spheroid response to aryl hydrocarbon receptor antagonists in combination with a variety of drugs and investigational agents in selected tumor cell lines […] Compounds. […] If the clinical Cmax for an agent had not been determined, the highest concentration tested was 10 microM (Table 1). […]
Provide the reading as a plain figure in %.

Please review the entries below; each comes with its answer.
# molecule, viability, T/C [%]
records = [
    ("CC1(C)CCC(CN2CCN(c3ccc(C(=O)NS(=O)(=O)c4ccc(NCC5CCOCC5)c([N+](=O)[O-])c4)c(Oc4cnc5[nH]ccc5c4)c3)CC2)=C(c2ccc(Cl)cc2)C1 + Cc1cncc(-c2nc(NCCc3c[nH]c4ccccc34)c3ncn(C(C)C)c3n2)c1", 127),
    ("COc1cc(Nc2ncc3c(n2)-c2ccc(Cl)cc2C(c2c(F)cccc2OC)=NC3)ccc1C(=O)O + Cc1cncc(-c2nc(NCCc3c[nH]c4ccccc34)c3ncn(C(C)C)c3n2)c1", 95.5),
    ("COc1cc(C2c3cc4c(cc3C(OC3OC5COC(C)OC5C(O)C3O)C3COC(=O)C23)OCO4)cc(OC)c1O (stereo unspecified) + CC(CO)NC(=O)c1cc(-c2ccc(Cl)cc2)nn(-c2cnn(C)c2)c1=O", 95.1),
    ("O=C(C=Cc1cccc(S(=O)(=O)Nc2ccccc2)c1)NO + Cc1cncc(-c2nc(NCCc3c[nH]c4ccccc34)c3ncn(C(C)C)c3n2)c1", 112),
    ("NS(=O)(=O)OCC1CC(n2ccc3c(NC4CCc5ccccc54)ncnc32)CC1O (stereo unspecified) + Cc1ccccc1N=Nc1ccc(NC(=O)c2ccnn2C)c(C)c1", 105),
]

Endpoint output: viability, T/C of Nc1ccccc1NC(=O)c1ccc(CNC(=O)OCc2cccnc2)cc1 + CC(CO)NC(=O)c1cc(-c2ccc(Cl)cc2)nn(-c2cnn(C)c2)c1=O . Value?
97.7

Endpoint output: viability, T/C of O=C(c1cc(Cc2n[nH]c(=O)c3ccccc23)ccc1F)N1CCN(C(=O)C2CC2)CC1 + Cc1cncc(-c2nc(NCCc3c[nH]c4ccccc34)c3ncn(C(C)C)c3n2)c1 . Value?
119

Endpoint output: viability, T/C of COc1cc(Nc2ncc3c(n2)-c2ccc(Cl)cc2C(c2c(F)cccc2OC)=NC3)ccc1C(=O)O + Cc1ccccc1N=Nc1ccc(NC(=O)c2ccnn2C)c(C)c1 . Value?
86.8

Endpoint output: viability, T/C of COc1ccc([C@@H](O)c2cc(-c3ncnc4cc(N5CCOCC5)ccc34)c(F)cc2Cl)nn1 + CC(CO)NC(=O)c1cc(-c2ccc(Cl)cc2)nn(-c2cnn(C)c2)c1=O . Value?
108

Endpoint output: viability, T/C of Nc1ccn(C2OC(CO)C(O)C2(F)F)c(=O)n1 (stereo unspecified) + Cc1cncc(-c2nc(NCCc3c[nH]c4ccccc34)c3ncn(C(C)C)c3n2)c1 . Value?
72.6

Endpoint output: viability, T/C of CC1COCCN1c1cc(C2(S(C)(=N)=O)CC2)nc(-c2ccnc3[nH]ccc23)n1 (stereo unspecified) + Cc1cncc(-c2nc(NCCc3c[nH]c4ccccc34)c3ncn(C(C)C)c3n2)c1 . Value?
117

====

# Tested on: 699152-130-R-J1-PDC complex spheroid growth
# experiment description: Anticancer human tumor 699152-130-R-J1-PDC cell line growth inhibition [AhR];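 further: compound exposure lasted 7 days after spheroids had grown for 3 days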
# particulars: second compound 1 µM; first compound 0.0316 µM; stronger effect = lower value
Please use Satisfied for viability, T/C under 90% and Not satisfied for everything else, ties included.

# molecule, discrete label
measured = [
    ("COc1cccc2c1C(=O)c1c(O)c3c(c(O)c1C2=O)CC(O)(C(=O)CO)CC3OC1CC(N)C(O)C(C)O1 (stereo unspecified) + CC(CO)NC(=O)c1cc(-c2ccc(Cl)cc2)nn(-c2cnn(C)c2)c1=O", "Satisfied"),
    ("Nc1ccccc1NC(=O)c1ccc(CNC(=O)OCc2cccnc2)cc1 + Cc1cncc(-c2nc(NCCc3c[nH]c4ccccc34)c3ncn(C(C)C)c3n2)c1", "Not satisfied"),
    ("Nc1ncn(C2CC(O)C(CO)O2)c(=O)n1 (stereo unspecified) + Cc1cncc(-c2nc(NCCc3c[nH]c4ccccc34)c3ncn(C(C)C)c3n2)c1", "Not satisfied"),
    ("NS(=O)(=O)OCC1CC(n2ccc3c(NC4CCc5ccccc54)ncnc32)CC1O (stereo unspecified) + CC(CO)NC(=O)c1cc(-c2ccc(Cl)cc2)nn(-c2cnn(C)c2)c1=O", "Not satisfied"),
]

Turning to the following molecule.
Field: below-cutoff. Rule: recorded viability, T/C strictly less than 90%. Subject: CC[C@@]1(O)C(=O)OCc2c1cc1n(c2=O)Cc2cc3c(CN(C)C)c(O)ccc3nc2-1 + Cc1cncc(-c2nc(NCCc3c[nH]c4ccccc34)c3ncn(C(C)C)c3n2)c1
Satisfied

====

# Tested on: 699152-130-R-J1-PDC complex spheroid growth
# experiment description: Anticancer human tumor 699152-130-R-J1-PDC cell line growth inhibition [AhR];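 further: compound exposure lasted 7 days after spheroids had grown for 3 days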
# particulars: second compound 0.1 µM; first compound 0.00949 µM; stronger effect = lower value
Please use class 1 for viability, T/C under 90% and class 0 for everything else, ties included.

# molecule, discrete label
measured = [
    ("Nc1ncn(C2CC(O)C(CO)S2)c(=O)n1 (stereo unspecified) + Cc1ccccc1N=Nc1ccc(NC(=O)c2ccnn2C)c(C)c1", "class 0"),
    ("CC(C)CC(NC(=O)C(Cc1ccccc1)NC(=O)c1cnccn1)B(O)O (stereo unspecified) + Cc1cncc(-c2nc(NCCc3c[nH]c4ccccc34)c3ncn(C(C)C)c3n2)c1", "class 1"),
    ("CC(C)CC(NC(=O)C(Cc1ccccc1)NC(=O)c1cnccn1)B(O)O (stereo unspecified) + Cc1ccccc1N=Nc1ccc(NC(=O)c2ccnn2C)c(C)c1", "class 1"),
    ("CCN(c1cc(-c2ccc(CN3CCOCC3)cc2)cc(C(=O)NCc2c(C)cc(C)[nH]c2=O)c1C)C1CCOCC1 + CC(CO)NC(=O)c1cc(-c2ccc(Cl)cc2)nn(-c2cnn(C)c2)c1=O", "class 0"),
]

Turning to the following molecule.
Field: below-cutoff. Rule: recorded viability, T/C strictly less than 90%. Subject: CCc1c2c(nc3ccc(O)cc13)-c1cc3c(c(=O)n1C2)COC(=O)[C@]3(O)CC + Cc1ccccc1N=Nc1ccc(NC(=O)c2ccnn2C)c(C)c1
class 1

====

# System: 699152-130-R-J1-PDC complex spheroid growth
# experiment description: Anticancer human tumor 699152-130-R-J1-PDC cell line growth inhibition [AhR];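 further: compound exposure lasted 7 days after spheroids had grown for 3 days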
# particulars: second compound 1 µM; first compound 0.03 µM; stronger effect = lower value
# Description: Multicellular complex tumor spheroid response to aryl hydrocarbon receptor antagonists in combination with a variety of drugs and investigational agents in selected tumor cell lines […] Compounds. […] If the clinical Cmax for an agent had not been determined, the highest concentration tested was 10 microM (Table 1). […]
attribute measured: viability, T/C (%)
Provide the reading as a plain figure in %.

# compound, viability, T/C (%)
data = [
    ("Nc1ncn(C2CC(O)C(CO)S2)c(=O)n1 (stereo not drawn) + CC(CO)NC(=O)c1cc(-c2ccc(Cl)cc2)nn(-c2cnn(C)c2)c1=O", 95.3),
    ("O=C(C=Cn1cnc(-c2cc(C(F)(F)F)cc(C(F)(F)F)c2)n1)NNc1cnccn1 + Cc1cncc(-c2nc(NCCc3c[nH]c4ccccc34)c3ncn(C(C)C)c3n2)c1", 111),
]

Proceeding to the next compound to report its viability, T/C.
Endpoint output: viability, T/C of Nc1ncn(C2CC(O)C(CO)S2)c(=O)n1 (stereo not drawn) + Cc1cncc(-c2nc(NCCc3c[nH]c4ccccc34)c3ncn(C(C)C)c3n2)c1 . Value?
110

// data source = PubChem BioAssay AID1919001
